target: MSI1 full-length (mouse, UniProt Q61474 1-362); assay: nsRBNS (natural sequence RNA bind-n-seq); RBNS binding buffer (assumed for nsRBNS): 25 mM Tris pH 7.5, 150 mM KCl, 3 mM MgCl2, 0.01% Triton X-100, 500 ug/ml BSA, 20 U/ml SUPERase-In, 4 C; UNK is unkempt and MSI1 is Musashi-1; names of the RNAs are library labels; protein concentration not given here; high values mean tight binding
Sequence (Q61474 whole entry): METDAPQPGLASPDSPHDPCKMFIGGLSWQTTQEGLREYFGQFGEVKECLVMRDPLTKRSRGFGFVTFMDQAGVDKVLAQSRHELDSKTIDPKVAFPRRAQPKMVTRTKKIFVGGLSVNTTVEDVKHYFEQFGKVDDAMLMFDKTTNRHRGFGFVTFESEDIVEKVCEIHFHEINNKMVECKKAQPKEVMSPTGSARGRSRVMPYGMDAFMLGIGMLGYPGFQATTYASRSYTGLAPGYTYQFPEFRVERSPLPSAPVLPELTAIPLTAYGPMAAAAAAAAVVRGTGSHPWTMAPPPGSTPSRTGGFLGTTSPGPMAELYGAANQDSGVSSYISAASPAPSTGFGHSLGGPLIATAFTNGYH
Over roughly 5,800 sequences, “enrichment r” has its median near 0.54; the highest 2% begin near 16. What follows is part of a selection rich in the highest values, with near analogues and random picks from the rest.
Form field: binding signal (one value per entry).
Supply the numeric figure in enrichment R, leaving out any unit text.

INSERT INTO results (binder, measurement_name, result) VALUES
  ('chr5:132696315:132696416:-|3pUTR|ENSG00000131437|msi1|FALSE|unique (ssRNA) RNA: GGGAGUUCUACAGUCCGACGAUCGUUGUACUACUACUCUUCAAUUGUACUGUGCAGGGAAGUUGGGGGAACAGUUCAUACUAUAGAGAGUUACAGUUUAGAUGUAUGUGUAAAUCGAUUAGCUAUUUAUCCAACUACUGUAUACAACAGAGGAUUGAGCAUCA', 'binding signal', 19.9);

// returns reported binding signal for input chr8:103332422:103332528:+|3pUTR|ENSG00000164930|msi1|total|mutant (ssRNA) RNA: GGGAGUUCUACAGUCCGACGAUCUUUUUUAACAUUCCGAAUAUUACAUUUUGUAUUAUACAGUACCUUUCUCAGACAUUUUGCCGAAUUCAUUUCGGCAGCUCACCCGGAUUUUGCUGAACAUUAAAAAGUGUGACCGCGAUACAACAGAGGAUUGAGCAUCA
0.818

// returns reported binding signal for input chr8:42175261:42175472:-|3pUTR|ENSG00000104368|msi1|FALSE|unique (ssRNA) RNA: GGGAGUUCUACAGUCCGACGAUCGUAUUCCUUUUGUGUACAGUGUGUAAAGUGUAAAUCCUUUUUCUUUAUAAACUUUAGAGUAGCAUGAGAGAAUUGUAUCAUUUGAACAACUAGGCUUCAGCAUAUUUAUAGCAAUCCAUGCAACAGAGGAUUGAGCAUCA
33.5

// returns reported binding signal for input chr5:136976780:136976881:-|3pUTR|ENSG00000152377|msi1|total|mutant (ssRNA) RNA: GGGAGUUCUACAGUCCGACGAUCCUUAAAUCCGCAUGUUCCAAUCCAGUCGGCAUUGCCUGAAUACAGCCGCAUCAUACCUACCGUUGGUCUCCGAUAAGAAAUGAACUACUUGAUACCGCAAAGUCCUUUGGCUUCGUAAAUCAACAGAGGAUUGAGCAUCA
0.478

// returns reported binding signal for input chr7:80742675:80742739:-|3pUTR|ENSG00000075223|msi1_unk|FALSE|overlapping (ssRNA) RNA: GGGAGUUCUACAGUCCGACGAUCGUAGCUUGACAAUUCAGUGACUUAAUAUCUAUUCCAUUUGUAUUGUACAUAAAAUUUUCUAGAAAUACACUUUUUUCCAAAGUGUAAGUUUGUGAAUAGAUUUUAGCAUGAUGAAACUGUCAACAGAGGAUUGAGCAUCA
6.36

// returns reported binding signal for input chr4:65323451:65323552:-|3pUTR|ENSG00000145242|msi1|total|mutant (ssRNA) RNA: GGGAGUUCUACAGUCCGACGAUCAUCAAGAAAAAGUACAAUACAGGGUGUAUAUUUAUUUUUUGUGUUAUAAAGUUUACUUUCCGUUGCUCUUCCCGAGAUUAUCCGGUAAUAAAUGUGUAUAUACUGUAUAAUUUGCAAUAUCAACAGAGGAUUGAGCAUCA
1.51

// returns reported binding signal for input chr5:141515350:141515460:-|3pUTR|ENSG00000131504|msi1_unk|FALSE|overlapping (ssRNA) RNA: GGGAGUUCUACAGUCCGACGAUCCUCAGCUUUCCAUCCCCAGCUAGGAAGAAAGAAUGGCACUCUUGGGCUUGGCCCAGAAUUAGAGUUAUUAGAGCAAGAGAGAGCUUAGGAAGCAUGAGGGCAACUAUAGUGAGGCCUUAUCAACAGAGGAUUGAGCAUCA
28.2
